- Target or system: UniProt P04629
- Sequence (P04629 33-796): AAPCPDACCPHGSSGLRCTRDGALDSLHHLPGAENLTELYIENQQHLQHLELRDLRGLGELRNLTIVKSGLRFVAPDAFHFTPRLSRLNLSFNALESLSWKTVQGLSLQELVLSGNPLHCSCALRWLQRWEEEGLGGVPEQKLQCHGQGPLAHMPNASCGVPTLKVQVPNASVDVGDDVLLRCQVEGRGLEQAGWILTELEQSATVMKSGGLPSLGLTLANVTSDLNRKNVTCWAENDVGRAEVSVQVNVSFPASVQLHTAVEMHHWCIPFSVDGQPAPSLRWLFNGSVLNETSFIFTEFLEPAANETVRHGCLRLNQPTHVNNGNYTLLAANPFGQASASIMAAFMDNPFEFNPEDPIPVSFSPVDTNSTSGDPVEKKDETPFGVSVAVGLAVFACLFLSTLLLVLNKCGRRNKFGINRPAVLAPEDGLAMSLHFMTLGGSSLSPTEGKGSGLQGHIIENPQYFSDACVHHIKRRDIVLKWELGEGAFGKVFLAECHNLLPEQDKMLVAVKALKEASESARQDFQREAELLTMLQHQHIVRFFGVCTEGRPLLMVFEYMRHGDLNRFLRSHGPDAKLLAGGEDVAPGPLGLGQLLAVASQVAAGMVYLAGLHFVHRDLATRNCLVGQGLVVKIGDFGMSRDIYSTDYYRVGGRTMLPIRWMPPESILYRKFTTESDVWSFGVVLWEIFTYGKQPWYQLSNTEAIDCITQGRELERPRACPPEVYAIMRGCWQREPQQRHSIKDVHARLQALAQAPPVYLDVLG
- Assay procedure: TrkA kinase-inhibiting activity using human TrkA expressing cells (CellSenser TrkA-NFAT-bla CHO-K1, NGF-stimulated reporter assay)
- Format: cell-based
- Assay conditions: CHO-K1 cells expressing human TrkA and NFAT-bla; NGF 50 ng/ml; read-out: TrkA inhibitory activity (IC50; μM)
Reported metric: IC50 (µM)
// note: answer is a bare numeric in µM

Example results:
INSERT INTO measurements (structure_smiles, target_or_system, reported_metric, recorded_measurement) VALUES
  ('CCCNc1ncc(-c2ccc(Oc3ncc(NC(=O)Nc4cc(F)ccc4F)cn3)cc2)s1', 'UniProt P04629', 'IC50', 0.004),
  ('CCCNc1ncc(-c2ccc(Oc3ncc(NC(=O)Nc4cc(C(F)(F)F)ccc4-n4ccc(C(F)(F)F)n4)cn3)cc2)s1', 'UniProt P04629', 'IC50', 0.002);

Next, consider the following molecule.
Q: May I ask what IC50 has been recorded for `O=C(Nc1cnc(Oc2ccc(-c3cnc(N4CCCC4=O)s3)cc2)nc1)Nc1cc(C(F)(F)F)cnc1-c1ccccc1` ?
A: 0.004
